target: Sodium-dependent serotonin transporter (Homo sapiens) (UniProt P31645); assay: Inhibition of human SERT expressed in HEK293 cells using 4-[4-(Dimethylamino)phenyl]-1-methyl pyridinium as substrate assessed as fluorescent intensity at 0.1 uM after 3 hrs relative to control; type: cell-based
Sequence (P31645 whole entry, looked up): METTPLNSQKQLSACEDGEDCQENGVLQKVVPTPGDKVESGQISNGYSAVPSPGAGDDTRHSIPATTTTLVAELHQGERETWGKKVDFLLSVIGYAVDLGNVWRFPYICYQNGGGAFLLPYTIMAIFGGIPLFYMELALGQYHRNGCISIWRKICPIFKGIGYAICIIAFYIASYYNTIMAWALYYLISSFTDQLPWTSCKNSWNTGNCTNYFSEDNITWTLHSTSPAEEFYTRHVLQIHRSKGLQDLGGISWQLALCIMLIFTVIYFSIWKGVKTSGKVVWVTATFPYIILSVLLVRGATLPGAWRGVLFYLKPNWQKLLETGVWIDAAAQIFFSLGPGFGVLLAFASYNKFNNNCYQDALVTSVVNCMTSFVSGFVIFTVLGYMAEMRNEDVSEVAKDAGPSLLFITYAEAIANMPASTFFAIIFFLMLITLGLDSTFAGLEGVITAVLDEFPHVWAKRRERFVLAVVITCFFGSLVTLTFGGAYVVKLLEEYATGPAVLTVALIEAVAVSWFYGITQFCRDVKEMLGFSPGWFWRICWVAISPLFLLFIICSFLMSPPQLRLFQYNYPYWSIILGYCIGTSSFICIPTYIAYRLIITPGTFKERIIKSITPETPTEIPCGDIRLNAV
Please provide measured RFU for the entries that follow.
Answers are plain numbers.

Field: example entries. Status: answers known.
>  <smilesString>
COc1cc([C@@H]2Oc3c(OC)cc(C(=O)O)cc3[C@H]2CO)ccc1O

>  <RFU>
0.984

$$$$
>  <smilesString>
COc1cc(C[C@@H](CO)c2cc(C(=O)O)cc(OC)c2O)ccc1O

>  <RFU>
1.01

$$$$

# context switch: different molecule, same RFU
Please give the documented RFU of COC(=O)CCCNC(=O)/C=C/c1ccc(O)c(OC)c1 1.02
